Biological target: S1-Fc (SARS-CoV-2 S1 protein, Fc fusion) (SARS-CoV-2, UniProt P0DTC2 16-685)
Test: SPR (Biacore T200), S1 captured on anti-human Fc chip, scFv injected
For each record, write down the corresponding Kd.
One number for each entry, in nM.

Consider the worked cases shown below.
2020EP64-C08 scFv (scFv) scFv: QMQLVQSGAEVKKPGSSVKVSCKASGGTFSSYAISWVRQAPRQGLEWMGRIIPILGIANYAQKFQGRVTITADKSTSTAYMELSSLRSEDTAVYYCASSYGGNQLWGQGTLVTVSSGGGGSGGGGSGGGGSQSVLTQPPSASGTPGQRVTISCSGSDSNIGTNTVNWYQQVPGTAPKVLIYSTHQRPSGVPDRFSASKSGTSASLAISGLQSEDEADYYCSSWDVSLNAWVFGGGTKVTVL: 73.6
2020EP64-G10 scFv (scFv) scFv: QVQLVQSGGGVVQPGRSLRLSCAASGFTFSSYAMHWVRQAPGKGLEWVAVISYDGSNKYYADSVKGRFTISRDNSKNTLYLQMNSLRAEDTAVYYCARDGEDGYNYISPFDYWGQGTLVTVSSGGGGSGGGGSGGGRSSYELTQPPSVSVAPGETARITCRGNDIGSKSVHWYQQKPGQAPVLVLYYDSDRPSGIPERFSGSNSGNTATLTISSVEAGDEADYYCHVWDIDVVFGGGTKLTVL: 11.2

Please find the next binder below.
*Q* Reported Kd for 2020EP71-E04 scFv (scFv) scFv: QVQLVQSGGGVVQPGRSLRLSCAASGFTFSSYGMHWVRQAPGKGLEWVAVISYDGSNKYYADSVKGRFTISRDNSKNTLYLQMNSLRAEDTAVYYCAKDRAYYYGYYYYYYGMDVWGQGTTVTVSSGGGGSGGGGSGGGGSQSVLTQPPSVSGAPGQRVTISCTGSSSNIGAGYDVHWYQQLPGTAPKLLIYGNSNRPSGVPDRFSGSKSGTSASLAITGLQAEDEADYYCATWDDSLSGPVFGGGTKVTVL : what is it?
*A* 37.6
